TESTED ON: pooled human IgG
REPORTED METRIC: Enzyme Activity Endpoint Assay: Fc (ng/µL)
Answers are plain numbers, in ng/µL.

Looking up PRT-548 (protein) MANQEIRYSEETPKTITSVWTKGVTPPTDFIKNEDVLHAPYIANQGWYDITKTFNGKDDLLCGAATAGNMLHWWFDQNKEEIENYLKKHPEKQKINFNGEQMFDVKEAIDTKDSQTDSALFEYFKDKAFPYLSTKHLGVFPDHVIDMFINGYRLSLTNHGPTPVKRGTKDPRGGIFDAVFTRGDQTKLLTARHDFKEKTLNEISDLIKQELTEGKALGLSHTYANVRINHVINLWGADFNSEGNLEAIYVTDSDSNASIGMKKYYVGVNAAGKVAISAKEIEGDNIGAQVLGLFTLSTGQDIWEQTNLEHHHHHH , I found its Enzyme Activity Endpoint Assay: Fc recorded as 458
